Reference source: the DeepSol protein solubility set

Experiment summary: soluble on expression in E. coli; label from the status in PepcDB or PDB records
Value type: soluble on expression in E. coli

Before answering, review these 4 worked examples.
MDEKKCWLVVCVQSNREKKTYERLSALGFESFLPLQEETRRWSDRSKKVQRVVIPMVVFARIAPSERISVLRLPSVSRFMVLRGESAPAIIPDAQMERFRFMLDYSEEAVEMCSERIQPGEQVKVIKGPLTGLTGELITMDGKSKVAVRINMLGAAMVEVPVGFVERI : not soluble
MSLKNLGSPVFFFQERPGKDGKPFKMVKFRSMRDALDSDGIPLPDGERLTPFGKKLRAASLDELPELWNILKGEMSLVGPRPLLMQYLPLYDNFQNRRHEMKPGITGWAQVNGRNALSWDEKFACDVWYIDHFSLCLDIKILLLTVKKVLIKEGISAQGEATMPPFTGKRKLAVVGAGGHGKVVADLAAALGRYREIVFLDDRAQGSVNGFSVIGTTLLLENSLSPEQYDVAVAVGNNRIRRQIAEKAAALGFALPVLVHPDATVSPSATVGQGSVVMAKAVVQAGSVLKDGVIVNTAATVDHDCLLNAFVHISPGAHLSGNTHIGEESWIGTGACSRQQIRIGSRATIGAGAVVVRDVSDGMTVAGNPAKPLPRKNPETSTAEGHHHHHH : not soluble
RAKGRFFYDKTSSQQPAIIVLSGSDGRIEKAQNIAQLLASHGFTTLALAYFGLEGLASHLEKIPLEIIQEAIDYLKKSPYADSIRLGLYGRSKGAEFALLAASHYADFKCLVLNSPSYLCLEGLKQWRNSKTSSWTYQGQELPYHPFLWKDFFQRLILKKDLKNINHQAVIPVEKINGSLLLLVSKKDEVWDAYGSAITIVNRLQQKRFKYPYQVESYENCGHMMTVAYQPNHRYKKVALEKIMADTNDSWQKTL : not soluble
MGSDKIHHHHHHMSVTINDTSSASSTQGLSSTTAVEKNSSADLQNQFLTLLVAQLKNQDPTNPMSNDQLVSQLAQLNTVSGIEKLNTTLGSISGQINNNQSMQASTLIGHSVMIPGKDILVGKETSTPFGVELEKAAEVVTVTVNDATGKAVRTIELGTLSAGVHSFNWDSKLADGTVAPDGAYTFTVAASTGGAQQVVQPLSYAVVNSVVRGDSGALLDLGLRGKATLDDVRQIL : not soluble

Please turn your attention to the following entry.
Form: sequence = MGSDKIHHHHHHMALKGKGQAKSPNVDDNPQLGLESEIPVAPRSKRQTRQAEEVQAKDPYLDSVKELDDVLLKFKKYSKSMSSIENKVFSSSGGCFKSKNERVNAYSFTCSSFADKIEEYSYDPANSFPYKRGVKLVLKESSIYVEVGADTDMYGICVDVCEFSSTAYVLPITNNFEGYLVTRNPSIKMGEILDINNNGVIIKAGGGPPTVINAYALSDSFTINFAPEDEHQDQARYPKQEYSINLIKVAIFGNRGLEKTVTPEAGG ; soluble on expression in E. coli = not soluble

====

Experiment summary: soluble on expression in E. coli; label from the status in PepcDB or PDB records
Value type: soluble on expression in E. coli

Before answering, review these 5 worked examples.
MELIQDTSRPPLEYVKGVPLIKYFAEALGPLQSFQARPDDLLINTYPKSGTTWVSQILDMIYQGGDLEKCNRAPIYVRVPFLEVNDPGEPSGLETLKDTPPPRLIKSHLPLALLPQTLLDQKVKVVYVARNPKDVAVSYYHFHRMEKAHPEPGTWDSFLEKFMAGEVSYGSWYQHVQEWWELSRTHPVLYLFYEDMKENPKREIQKILEFVGRSLPEETMDFMVQHTSFKEMKKNPMTNYTTVPQELMDHSISPFMRKGMAGDWKTTFTVAQNERFDADYAEKMAGCSLSFRSEL : soluble
MAGDPMSLPGLSAAADQTIKIGAQSMSESEIIASMLGQLIEHHTDLKTTTIKNLGSNAVQQQALMNGEIDIAATRYTGDALTGTLRMEPEKDPDKALALTQREFKKRYDLKWYDSYGFDNTYAFTVSKELADQYHLETVSDVKKWAPQLKLGVDNYWMKLKGNGYQDFTKTYGMTFGGTYPMQIGLVYDAVKSGKMDIVLAYSTDGRIKSYGLKMLKDDKQFFPPYDCSPVVPEKVLKEHPELEGIIKKMLGKIDTATMQELNYEVDGNLKEPSVVAKEYLEKHRYFESLEHHHHHH : soluble
MTHETDKIVEIERQKIEVENERFAIEDECCSIKKRIDVLDGVAAQISSGPASMGFSGQCSSSIPASGSQPHLTRRHTVTGQEPNPLAMSQNQMSTGFFFNHESLDNLAKFLGYYGE : not soluble
MIFTYNKEHVGDVLMVIVKDSKGAKLNCERKGKVTRIFLEKNKETVAWNIFAVSNLLDLNGNGQVFLTDEELAVLNAELAKEGFEEKLENNAAAKFVVGEIVEMVAHPDSDHLNICQVKIAEDKTVQIVAGAPNARVGLKTIVALPGAMMPSGGLIFPGNLRGEKSFGMLCSPRELALPKAPQKRGIIELSTDAVIGQAFDAGKHWKGLEHHHHHH : not soluble
MAHHHHHHMLNVVQATRMSKKQEVKAYGPNVKKGDLVYGVVHIFASFNDTFVHVTDMSGRETYVKVTGGMKVKADRDESSPYAAMMAAQDVVARCKECGINALHVKMRAVGGVRTKSPGPGRPGRPPRARPRRDEDWPHRGCHPDPDRLHPPQGFPPWSPPVRSLRPRVLRTAQQSELTLVTICWFPCVCDLLSFYCREEKKHRPQITEAR : not soluble

Form: sequence = MGSDKIHHHHHHMSQFIDILRQHLADFQWRYAHQITPEIQDAIHAMLSCRCNTARVSCCEQQREFPLSCGHRSCPQCQHGTTCDWLSKQQAKLLPVNYFMVTFTLPFELRAIAKSQPDLLYHALFTVAASVLKDFAVRSPKLSGDIGFTGVLHTYSRRRDYHPHLHCIIPAGSYHPGKRQWRKCQTHYLFNAFNLAKVWRARLLTYLSDRLQLKLPH ; soluble on expression in E. coli = not soluble

Form: sequence = MVTILDRTSSDEKRIRHPEKAHRPDTEVMRKPEWIRVKAPTSKGYHETRELVRSHKLVTVCEEAGCPNIGECWEKKHATFMIMGEICTRACAFCNVATGKPNALDMDEPENVAKAVKQMGLSHVVITSVDRDDLADGGAEHFEKVIWAIRAASPTTTIEILTPDFLKKPGALERVVAAKPDVFNHNMETVPGNYLTVRPGARYFHSVRLLQRVKELDPTMFTKSGIMVGLGEERNEVLQLMDDLRSADVDFLTIGQYLQPTRKHHKVEAFVTPEEFKSYETVAYAKGFLMVSSSPLTRSSHHAGDDFERLRAAREKKLLAAAE ; soluble on expression in E. coli = not soluble

Form: sequence = MTKKDEVKELEVKNNIPEAEKKPFNKFGKQEKHTVEDVEYTFQFPGTRAAQAILDNSKGPSNTFSDVAYHSQLMDSVIVTPKLNWDYWDEHEGYREVMALADNFLGRMLN ; soluble on expression in E. coli = not soluble

Form: sequence = MGSDKIHHHHHHMQVNRLFQIIYILLEKNSVTARELAEKIEVSKRTIYRDIETLSTAGIPVYMTKGKGGGISILPNFILNKAILTEEEKSEIISSIRAVNAVNFSDSEAEKVLIKLNSILGENDTDWIEVDFSNWGNAEKEKETFNNLKTAILSKKVVKFDYSSAKGENISRKVCPLKLCFKGQSWYMYGYCGIRNDYRFFKLRRIKDLYVSEESFNIKAPKKIMKEDNVFYDEFITLKMKISSKMAYRIYDEFEDFKKLDDGSFIVTAEYPKGEWLFSYISSFGEECEVLAPQEIREEIKNKIEKMLLNYS ; soluble on expression in E. coli = not soluble

Form: sequence = MMLYFITFREARVLLKSRDLALINVDLMKTGKKIRVRVSKDYVEFPDGSRVKKEIIKRIAEDEGNVYFVRDGEVFKAAIAGEHFYKLVPTIPPTIEINGIRMHRTKGTDPLKDTIAKVNTVKPREGEVVLDTCMGLGYTAIESAKRGARVITIEKDPNVIELAKINPWSRELFESPKIKILQGDSFDLIKKFEDESFDVIIHDPPRFSLAGELYSEEFYMEMFRVLKPGGRLFHYVGNPGKRYRGLDLQKGVMERLRRVGFMKVRRVQEALGVFALKPSLE ; soluble on expression in E. coli = soluble

Form: sequence = MAHHHHHHMTDVAEGHQSYANAFISEGDRTSAVRYLDLFLRLYEEYCDVAEVEANSRVLQAATVMQSNSHAPDLLSYVVSAAALGIGGTRALAPALASLPLKVLNLSECYLGDAGLRVLAETLSASSHSTGGLRVLELRGISASDGSSVALLVTALRSLQLLDVSSNRFGTRPPGFALLCAAMGYHPALREVHIADNMVSGCCESCVGAIAEWLVKASRACMLQHVDLRFNTLGLYRRGLYNTVVDGKEVQCTLYGFYPLVDALLLNNSIEVLEVGNNGFPPGVLDAIEAKLAVNKRTKKALQEYYTNHIDR ; soluble on expression in E. coli = not soluble

Form: sequence = MDLISGEADPSESRAAERPGTAPLQGLVTFNRLELNRILNLYGRMVAAGEWRDYAIDFLKDTAVFSIFRRASEVPIYRIVKDPRLARKQGAYSVIGASGQILRRGHELERVLLVIDRKLALV ; soluble on expression in E. coli = not soluble
